Assign cell viability to each entry below.
system: HCT116; assay: cell viability (CellTiter-Glo) relative to plate median (fraction of plate median); higher = more viable cells; settings: 5 µM; treatment time 24 h; reporter: TCF4/Wnt
Answers are plain numbers.

Guide cases for cell viability, answers given:
O=C(O)c1cccnc1C(=O)O: 1.09
C1CNCCN1: 0.96
CC1(C)OC(=O)NC1=O: 0.971
Cc1onc(-c2ccccc2)c1-c1ccc(S(N)(=O)=O)cc1: 1.02
CC(=O)C12OC(C)(c3ccccc3)OC1CC1C3CCC4=CC(=O)CCC4(C)C3CCC12C (stereo not drawn): 0.987

Please give cell viability, item by item, for the list that follows.
1. Cn1ccnc1S
2. O=C(OCC(O)CO)c1ccccc1Nc1ccnc2cc(Cl)ccc12 (stereo not drawn)
3. O=C(CCCN1CCN(c2ccccn2)CC1)c1ccc(F)cc1
4. NS(=O)(=O)c1cc2c(cc1Cl)N=CNS2(=O)=O
5. CC1(C)O[C@H]2[C@H](O)C[C@](O)(C(N)=O)C[C@H]2O1
6. CCc1cc(C(N)=S)ccn1

1. 1.04
2. 1.01
3. 0.963
4. 0.973
5. 1.17
6. 1.02

Please give cell viability, item by item, for the list that follows.
1. O=C(/C=C/c1ccccc1)c1ccc(O)cc1O
2. Nc1cc(N2CCCCC2)nc(N)[n+]1[O-]

[0.984, 0.972]

###

system: DLD1; assay: TCF/Wnt firefly luciferase reporter signal relative to plate median (fraction of plate median); higher = higher Wnt reporter signal; conditions: 5 µM; treatment time 24 h; reporter: 7TFP
Grouping rule (TCF/Wnt firefly luciferase reporter signal): bucket A (below 0.9), bucket B (0.9 to below 1), bucket C (1 or more)

OCCN1CCN(CCCN2c3ccccc3Sc3ccc(Cl)cc32)CC1: bucket C
CC(=O)N1CCCC(N)C1=O (configuration not stated): bucket A
NC(=O)NO: bucket C
CN1CCN(CC(=O)N2c3ccccc3C(=O)Nc3cccnc32)CC1: bucket A
CN(C)CCC=C1c2ccccc2CCc2ccccc21: bucket B

Now let's try a different one.
Entry OCC(O)C(O)C(O)C(O)C(O)CO (configuration not stated) belongs to which category?
bucket B

###

system: SW480; assay: cell viability (CellTiter-Glo) relative to plate median (fraction of plate median); higher = more viable cells; conditions: 5 µM; treatment time 24 h; reporter: 7TFP
Measurement Name: cell viability
Answers are plain numbers.

Guide cases for cell viability, answers given:
COc1ccc2c(c1)OCC(Cc1ccc(OC)c(OC(C)=O)c1)C2=O (centres undefined): 1.03
CC1CCC2(OC1)OC1CC3C4CCC5C[C@@H](O)CCC5(C)C4=CCC3(C)C1[C@@H]2C (stereo partly drawn) [3beta-HYDROXYISOALLOSPIROST-9(11)-ENE]: 0.973
CN1CCN(CCCN2c3ccccc3Sc3ccc(C(F)(F)F)cc32)CC1: 1.09

Please give cell viability, item by item, for the list that follows.
1. CN(Cc1cnc2nc(N)nc(N)c2n1)c1ccc(C(=O)N[C@@H](CCC(=O)O)C(=O)O)cc1
2. CC(=O)OC[C@@]1(O)C[C@@]23CC[C@@H]4c5ccoc5CC[C@@]4(C)[C@@H]2CC[C@@H]1C3
3. CS(C)(=O)=O
4. CN(C)CCC=C1c2ccccc2CCc2ccccc21
5. COC1C(OC(C)=O)C(C)OC(OC2C(Oc3cccc4c(OC(C)=O)c5c(=O)oc6ccc(C)c7c(=O)oc(c34)c5c67)OC(C)C(OC(C)=O)C2OC(C)=O)C1OC(C)=O (centres undefined) [Chartreusin-pentaacetate]

[1.1, 1.02, 0.962, 0.989, 0.932]

Please give the documented cell viability of "Oc1ccc2c(c1)OC[C@]1(O)Cc3cc(O)c(O)cc3[C@H]21"
0.936
